A collection of compounds and their measured Tubulin polymerization
SUBJECT OF TEST: Tubulin alpha chain (Sus scrofa)
TEST METHOD NOTES: Compound was tested in vitro for inhibition of tubulin polymerization, expressed as ratio to that obtained for paclitaxel
Format: functional
EXPERIMENTAL SETUP: Homo sapiens

{"columns": ["COMPOUND", "Tubulin polymerization"],
 "data": [
  ["CC(=O)O[C@H]1C(=O)[C@@]2(C)C([C@H](OC(=O)c3ccccc3)[C@]3(O)C[C@H](OC(=O)[C@H](O)[C@@H](NC(=O)c4ccccc4)c4ccccc4)C(C)=C1C3(C)C)[C@]1(OC(C)=O)CO[C@@H]1[C@@H](F)[C@@H]2O (stereo partly specified)", 1],
  ["CC(=O)O[C@H]1C(=O)[C@@]2(C)[C@H]([C@H](OC(=O)c3ccccc3)[C@]3(O)C[C@H](OC(=O)[C@H](O)[C@@H](NC(=O)c4ccccc4)c4ccccc4)C(C)=C1C3(C)C)[C@]1(OC(C)=O)CO[C@@H]1C[C@@H]2O", 1],
  ["CC(=O)O[C@H]1C(=O)[C@@]2(C)C([C@H](OC(=O)c3ccccc3)[C@]3(O)C[C@H](OC(=O)[C@H](O)[C@@H](NC(=O)OC(C)(C)C)c4ccccc4)C(C)=C1C3(C)C)[C@]1(OC(C)=O)CO[C@@H]1C[C@@H]2O (stereo partly specified)", 0.7],
  ["CC(=O)O[C@H]1C(=O)[C@@]2(C)C([C@H](OC(=O)c3ccccc3)[C@]3(O)C[C@H](OC(=O)[C@H](O)[C@@H](NC(=O)c4ccccc4)c4ccccc4)C(C)=C1C3(C)C)[C@]1(OC(C)=O)CO[C@@H]1[C@@H](Br)[C@@H]2O (stereo partly specified)", 1.1],
  ["CC(=O)O[C@H]1C(=O)[C@@]2(C)C([C@H](OC(=O)c3ccccc3)[C@]3(O)C[C@H](OC(=O)[C@H](O)[C@@H](NC(=O)OC(C)(C)C)c4ccccc4)C(C)=C1C3(C)C)[C@]1(OC(C)=O)CO[C@@H]1[C@@H](F)[C@@H]2O (stereo partly specified)", 0.6],
  ["CC(=O)O[C@H]1C(=O)[C@@]2(C)C([C@H](OC(=O)c3ccccc3)[C@]3(O)C[C@H](OC(=O)[C@H](O)[C@@H](NC(=O)c4ccccc4)c4ccccc4)C(C)=C1C3(C)C)[C@]1(OC(C)=O)CO[C@@H]1[C@@H](Cl)[C@@H]2O (stereo partly specified)", 0.8]
]}
